Cited source for all entries: patent US20150337042A1

Exercise: for every item that follows, state its recorded KD ratio (Ab1/variant Ab).
biological target: T1, EGFRvIII extracellular domain (EGFR (1-29)-G-(298-645)-LESRGPF-Myc-NMHTG-6His) (human, UniProt P00533 298-641); assay: SPR (Biacore), antibody captured via anti-human Fc, antigen injected
T1 construct: also called recombinant EGFRvIII; not shown: Myc tag
# respond with the number and nothing more

Request: Value lookup for KD ratio (Ab1/variant Ab); key = Antibody A (AbA) (antibody, human IgG1, kappa, V domains shown, IgG1) VH: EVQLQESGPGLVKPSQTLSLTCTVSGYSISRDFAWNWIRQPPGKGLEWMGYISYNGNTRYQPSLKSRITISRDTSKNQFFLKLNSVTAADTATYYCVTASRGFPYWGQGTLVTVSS VL: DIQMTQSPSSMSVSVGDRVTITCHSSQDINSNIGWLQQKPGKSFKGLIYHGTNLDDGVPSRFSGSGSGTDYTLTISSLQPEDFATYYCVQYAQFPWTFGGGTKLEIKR
Response: 4.1

Request: Value lookup for KD ratio (Ab1/variant Ab); key = Antibody E (AbE) (antibody, V domains shown, Full length IgG1) VH: EVQLQESGPGLVKPSQTLSLTCTVSGYSISSDFAWNWIRQPPGKGLEWMGYISYSGNTRYQPSLKSRITISRDTSKNQFFLKLNSVTAADTATYYCVTAGRGFPYWGQGTLVTVSS VL: DIQMTQSPSSMSVSVGDRVTITCHSSQDINSNLGWLQQKPGKSFKGLIYHGSNLDHGVPSRFSGSGSGTDYTLTISSLQPEDFATYYCVQYDQFPWTFGGGTKLEIK
Response: 1.2

Request: Value lookup for KD ratio (Ab1/variant Ab); key = Antibody N (AbN) (antibody, V domains shown, Full length IgG1) VH: EVQLQESGPGLVKPSQTLSLTCTVSGYSIGRDFAWNWIRQPPGKGLEWMGYISYSGNTRYQPSLKSRITISRDTSKNQFFLKLNSVTAADTATYYCVTASRGFPYWGQGTLVTVSS VL: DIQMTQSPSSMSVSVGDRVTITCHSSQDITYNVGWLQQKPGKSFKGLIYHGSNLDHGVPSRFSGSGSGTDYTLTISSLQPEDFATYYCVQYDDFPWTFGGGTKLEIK
Response: 12.5
